Below, each entry is listed with its recorded pKd.
Target: T1, TbRPA1 DBD-AB (Trypanosoma brucei, UniProt Q384B5 1-257)
T1 sequence: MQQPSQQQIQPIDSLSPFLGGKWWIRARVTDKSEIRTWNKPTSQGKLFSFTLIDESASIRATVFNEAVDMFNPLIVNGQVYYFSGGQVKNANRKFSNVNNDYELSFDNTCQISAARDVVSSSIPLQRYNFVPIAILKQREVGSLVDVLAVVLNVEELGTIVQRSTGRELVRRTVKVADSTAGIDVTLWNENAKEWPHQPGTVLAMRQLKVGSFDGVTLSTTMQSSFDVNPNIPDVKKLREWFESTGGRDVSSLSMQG
Assay: MST; 20 mM Tris pH 7.5, 10 mM NaCl, 10 mM MgCl2, 2 mM DTT, 10% glycerol, 0.1 mg/ml BSA, 15 min, room temperature; EMSA 2 nM probe (gel at 4 C), MST 10 nM probe
Conditions: protein: recombinant; tags: N-term 6xHis (pET28a); label: 5' Cy5 (MST) or 5' IRDye800 (EMSA); single strand
pKd: −log10 of the molar value.
EXPERIMENTAL ENDPOINT: pKd

[
  {
    "BINDER": "TTTTTTTTTTTTTTTTTTTTTTTTTTTTTTTT (ssDNA) [dT32]",
    "EXPERIMENTAL ENDPOINT": "pKd",
    "OBSERVED": 7.61
  },
  {
    "BINDER": "TTTTTTTTTTTTTTTTTTTT (ssDNA) [dT20]",
    "EXPERIMENTAL ENDPOINT": "pKd",
    "OBSERVED": 7.52
  }
]
